Hey, just so you know, these numbers are from the supplement of paper PMC12350171.

Consider the following molecules; for each one, report its growth AUC normalised to DMSO control.
- Tested on: S. enterica typhimurium WT
- protocol-description: growth AUC normalised to DMSO control (median) (fraction of control); higher = less growth inhibition, active = hit call of the paper
- condition-notes: 20 µM
Counter-ions that a name gives are not always drawn.
One number for each entry.

CC(C)c1nc(CN(C)C(=O)N[C@H](C(=O)N[C@@H](Cc2ccccc2)C[C@H](O)[C@H](Cc2ccccc2)NC(=O)OCc2cncs2)C(C)C)cs1 [Ritonavir]    0.998
CC=CC1=C(C(=O)O)N2C(=O)[C@@H](NC(=O)[C@H](N)c3ccc(O)cc3)[C@H]2SC1 [Cefprozil]    1.01
CCSc1ccc2c(c1)N(CCCN1CCN(C)CC1)c1ccccc1S2 [Thiethylperazine maleate]    0.996
CCN(CC)CC(=O)Nc1c(C)cccc1C [Lidocaine hydrochloride]    0.963
CCCCCCOc1ccccc1C(N)=O [Exalamide]    1

Count: 4. Required value per item: growth AUC normalised to DMSO control.
1. c1cnc(N2CCN(Cc3ccc4c(c3)OCO4)CC2)nc1 [Piribedil]
2. Cc1cccc(C)c1NC(=O)CN1CCN(CCCC(c2ccc(F)cc2)c2ccc(F)cc2)CC1 [Lidoflazine]
3. C[C@H](O)[C@H](O)[C@H]1CNc2[nH]c(N)nc(=O)c2N1 [Sapropterin dihydrochloride]
4. NC[C@H]1O[C@H](O[C@H]2[C@H](O)[C@@H](O[C@H]3O[C@H](CO)[C@@H](O)[C@H](N)[C@H]3O)[C@H](N)C[C@@H]2N)[C@H](N)[C@@H](O)[C@@H]1O [Kanamycin B]

Key:
1. 0.984
2. 1.01
3. 1.01
4. 0.947

* * *

Consider the following compounds; for each one, report its growth AUC normalised to DMSO control.
- System: S. enterica typhimurium WT
- protocol-description: growth AUC normalised to DMSO control (median) (fraction of control); higher = less growth inhibition, active = hit call of the paper
- condition-notes: 20 µM
Counter-ions that a name gives are not always drawn.

Sample answers from the record:
O=C(O)CCc1nc(-c2ccccc2)c(-c2ccccc2)o1 [Oxaprozin]    1 (inactive)
NC[C@H]1O[C@H](O[C@H]2[C@H](O)[C@@H](O[C@H]3O[C@H](CO)[C@@H](O)[C@H](N)[C@H]3O)[C@H](N)C[C@@H]2N)[C@H](N)C[C@@H]1O [Tobramycin]    0.969 (inactive)
COC(=O)C1=C(C)NC(C)=C(C(=O)OC)C1c1ccccc1[N+](=O)[O-] [Nifedipine]    1.01 (inactive)

Count: 4. Required value per item: growth AUC normalised to DMSO control.
1. CN1C(=O)CC(c2ccccc2)C1=O (configuration not stated) [Phensuximide]
2. COc1cccc2c1C(=O)c1c(O)c3c(c(O)c1C2=O)C[C@@](O)(C(=O)CO)C[C@@H]3O[C@H]1C[C@H](N)[C@H](O)[C@H](C)O1 [Doxorubicin hydrochloride]
3. Cc1ccc(C(=O)c2ccc(CC(=O)O)n2C)cc1 [Tolmetin sodium salt dihydrate]
4. N[C@@H](CCC(=O)N[C@@H](CS)C(=O)NCC(=O)O)C(=O)O [Glutathione]

Key:
1. 1 (inactive)
2. 0.986 (inactive)
3. 0.999 (inactive)
4. 1 (inactive)

* * *

- Tested on: S. enterica typhimurium WT
- protocol-description: growth AUC normalised to DMSO control (median) (fraction of control); higher = less growth inhibition, active = hit call of the paper
- condition-notes: 20 µM
Counter-ions that a name gives are not always drawn.
Consider the following molecules; for each one, report its growth AUC normalised to DMSO control.

Sample answers from the record:
CC(Oc1ccccc1)C(=O)N[C@@H]1C(=O)N2[C@@H]1SC(C)(C)[C@@H]2C(=O)O (stereo not given in full) [Phenethicillin potassium salt]    1 (inactive)
Cn1cnc([N+](=O)[O-])c1Sc1ncnc2[nH]cnc12    1.02 (inactive)
CN(C)CCC=C1c2ccccc2COc2ccccc21 [Doxepin hydrochloride]    0.997 (inactive)

Count: 2. Required value per item: growth AUC normalised to DMSO control.
1. CCOc1ccccc1OC(c1ccccc1)C1CNCCO1 (stereo not given) [Reboxetine mesylate]
2. Nc1ccc(S(=O)(=O)Nc2ncccn2)cc1

Key:
1. 1 (inactive)
2. 0.986 (inactive)

* * *

- Tested on: S. enterica typhimurium WT
- protocol-description: growth AUC normalised to DMSO control (median) (fraction of control); higher = less growth inhibition, active = hit call of the paper
- condition-notes: 20 µM
Where a name gives a salt, the structure may show the parent alone.
Returns Met if the recorded growth AUC normalised to DMSO control is greater than or equal to 1, and Not met otherwise.

CN(C)CCn1nnnc1SCC1=C(C(=O)O)N2C(=O)[C@@H](NC(=O)Cc3csc(N)n3)[C@H]2SC1 [Cefotiam hydrochloride]    Not met
C=CC(N)CCC(=O)O (stereo not drawn) [Vigabatrin hydrochloride]    Met
CCC[C@@H]1C[C@@H](C(=O)N[C@@H]([C@H]2O[C@H](SC)[C@H](O)[C@@H](O)[C@H]2O)[C@H](C)Cl)N(C)C1 [Clindamycin hydrochloride]    Not met
CC(=O)OCC1=C(C(=O)O)N2C(=O)[C@@H](NC(=O)Cc3cccs3)[C@H]2SC1 [Cephalothin sodium salt]    Not met

Exercise: For this compound, is measured growth AUC normalised to DMSO control 1 or higher? CC[C@H]1OC(=O)[C@H](C)[C@@H](O[C@H]2C[C@@](C)(OC)[C@@H](O)[C@H](C)O2)[C@H](C)[C@@H](O[C@@H]2O[C@H](C)C[C@H](N(C)C)[C@H]2O)[C@](C)(O)C[C@@H](C)/C(=N\OCOCCOC)[C@H](C)[C@@H](O)[C@]1(C)O
Key: Not met

* * *

Consider the following compounds; for each one, report its growth AUC normalised to DMSO control.
- Test system: Vibrio cholerae
- protocol-description: growth AUC normalised to DMSO control (fraction of control); higher = less growth inhibition, active = hit call of the paper
- condition-notes: 20 µM
Where a name gives a salt, the structure may show the parent alone.

Count: 5. Required value per item: growth AUC normalised to DMSO control.
1. c1ccc2c(c1)CCCC2C1=NCCN1 (stereo not drawn) [Tetrahydrozoline hydrochloride]
2. CN1CCc2cccc3c2[C@H]1Cc1ccc(O)c(O)c1-3 [R(-) Apomorphine hydrochloride hemihydrate]
3. OC(CCCN1CCCCC1)(c1ccccc1)c1ccccc1 [Diphenidol hydrochloride]
4. C=CCc1ccccc1OCC(O)CNC(C)C (stereo not drawn) [Alprenolol hydrochloride]
5. C[C@H](CCC(=O)O)[C@H]1CC[C@H]2[C@@H]3CC[C@@H]4C[C@H](O)CC[C@]4(C)[C@H]3CC[C@]12C [Lithocholic acid]

Key:
0.991 (inactive)
1.01 (inactive)
1 (inactive)
1.04 (inactive)
1.04 (inactive)

* * *

- Tested on: P. vulgatus WT
- protocol-description: growth AUC normalised to DMSO control (median) (fraction of control); higher = less growth inhibition, active = hit call of the paper
- condition-notes: 20 µM
Structures can show the parent of a compound that is named as a salt.
Consider the following molecules; for each one, report its growth AUC normalised to DMSO control.
Give bare numbers.

CC(C)NCC(O)COc1ccc(COCCOC(C)C)cc1 (stereo not given) [Bisoprolol hemifumarate]    1.08
CCCCNC(=N)NC(=N)N    1.06
CN(C)CCC(c1ccccc1)c1ccccn1 (stereo not given) [Pheniramine maleate]    1.02

Count: 2. Required value per item: growth AUC normalised to DMSO control.
1. O=C1[C@@H]2[C@H]3CC[C@H](C3)[C@@H]2C(=O)N1CCCCN1CCN(c2ncccn2)CC1
2. CC(=O)O[C@]1(C(C)=O)CC[C@H]2[C@@H]3C=C(Cl)C4=CC(=O)CC[C@]4(C)[C@H]3CC[C@@]21C [Chlormadinone acetate]

Key:
1.05
0.977

* * *

- Tested on: Salmonella enterica typhimurium
- protocol-description: growth AUC normalised to DMSO control (fraction of control); higher = less growth inhibition, active = hit call of the paper
- condition-notes: 20 µM
Structures can show the parent of a compound that is named as a salt.
Returns class 1 if the recorded growth AUC normalised to DMSO control is greater than or equal to 1, and class 0 otherwise.

C[C@H]1O[C@H](O[C@H]2[C@H](O)[C@@H](O)[C@@H](O[C@@H]([C@H](O)[C@@H](O)C=O)[C@H](O)CO)O[C@@H]2CO)[C@H](O)[C@@H](O)[C@@H]1N[C@H]1C=C(CO)[C@@H](O)[C@H](O)[C@H]1O    class 1
O=c1[nH]c(=O)n([C@H]2C[C@H](O)[C@@H](CO)O2)cc1F    class 0
C[N+](C)(C)CCOC(N)=O [Carbachol chloride]    class 1

Exercise: For this compound, is measured growth AUC normalised to DMSO control 1 or higher? Cc1cccn2c(=O)c(-c3nnn[nH]3)cnc12
Key: class 0

Exercise: // same read-out, input: C=CC1=C(C(=O)O)N2C(=O)[C@@H](NC(=O)/C(=N\OCC(=O)O)c3csc(N)n3)[C@H]2SC1
Key: class 0

Exercise: // same read-out, input: C#CCN(C)Cc1ccccc1 [Pargyline hydrochloride]
Key: class 0

Exercise: // same read-out, input: CO/N=C(\C(=O)N[C@@H]1C(=O)N2C(C(=O)O)=C(COC(N)=O)CS[C@H]12)c1ccco1 [Cefuroxime sodium salt]
Key: class 0

Exercise: // same read-out, input: C[C@H](O)C(=O)Nc1c(I)c(C(=O)NC(CO)CO)c(I)c(C(=O)NC(CO)CO)c1I
Key: class 1
